Measured values drawn from patent US20220064322A1 for this set.

pEC50 by entry:
assay_system: T1, cynomolgus CD73 on the cell surface (293T/17-cynoCD73 cells) (cynomolgus (Macaca fascicularis), UniProt P21589 27-547 (human entry))
T1 construct: it is an ecto-domain with a His tag
T1 chain: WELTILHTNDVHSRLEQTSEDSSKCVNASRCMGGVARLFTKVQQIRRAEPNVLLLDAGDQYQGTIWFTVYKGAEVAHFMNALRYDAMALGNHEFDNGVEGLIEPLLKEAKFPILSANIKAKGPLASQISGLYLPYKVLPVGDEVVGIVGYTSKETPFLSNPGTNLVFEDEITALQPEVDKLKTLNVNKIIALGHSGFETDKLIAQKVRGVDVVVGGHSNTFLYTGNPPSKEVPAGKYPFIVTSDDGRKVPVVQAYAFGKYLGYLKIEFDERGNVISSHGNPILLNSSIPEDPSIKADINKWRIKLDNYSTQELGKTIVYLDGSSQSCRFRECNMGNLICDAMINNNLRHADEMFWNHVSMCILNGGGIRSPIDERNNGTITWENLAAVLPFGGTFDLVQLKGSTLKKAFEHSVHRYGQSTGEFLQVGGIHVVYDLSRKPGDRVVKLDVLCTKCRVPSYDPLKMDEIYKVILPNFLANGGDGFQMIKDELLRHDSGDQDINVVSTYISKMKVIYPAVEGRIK
assay_text: flow cytometry on 293T/17-Cyno CD73 cells
Please keep in mind that pEC50 is minus log10 of the molar concentration; only the number is needed.

binder	result_number
JB24H3L2 (antibody, human IgG1, kappa, V domains shown, Humanized antibody of JB24Chi, human IgG1 / kappa) VH: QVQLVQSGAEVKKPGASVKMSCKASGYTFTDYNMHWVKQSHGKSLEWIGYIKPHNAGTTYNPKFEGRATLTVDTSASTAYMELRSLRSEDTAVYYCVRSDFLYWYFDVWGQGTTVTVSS VL: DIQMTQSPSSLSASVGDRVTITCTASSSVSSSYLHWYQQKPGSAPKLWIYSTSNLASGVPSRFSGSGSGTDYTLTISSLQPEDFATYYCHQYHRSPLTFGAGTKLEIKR	8.44

// switching to the query binder
What value of measured pEC50 is listed for JB24H3L3 (antibody, human IgG1, kappa, V domains shown, Humanized antibody of JB24Chi, human IgG1 / kappa) VH: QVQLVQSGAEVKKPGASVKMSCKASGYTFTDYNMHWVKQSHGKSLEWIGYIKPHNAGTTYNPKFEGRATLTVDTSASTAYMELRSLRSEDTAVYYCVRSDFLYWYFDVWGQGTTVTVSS VL: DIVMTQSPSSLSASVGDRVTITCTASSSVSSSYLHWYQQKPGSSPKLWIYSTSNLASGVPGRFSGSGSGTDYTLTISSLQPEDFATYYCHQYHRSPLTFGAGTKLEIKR ?
8.43
